test.method.notes: chemical genetic growth profiling, strain panel (AID 1159580);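 also: tested at 20 µM; growth read once vehicle control cultures reached saturation at 30 °C; 1 = growth at the plate median or of vehicle wells; lower values mean less growth of the strain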
conditions.used: S. cerevisiae deletion strains, growth OD, locus YPL241C, strain CIN2
Out of some 5,500 compounds screened, about 2,000 (36%) were called active. Another 18% or so got no clear call; they are omitted. Rule as the data show it: active = normalized growth mostly below about 0.91 (no sharp cut-off); inconclusive = no clear call, values can overlap the other calls; inactive = mostly above about 0.92. The list shows a part of the results.
Use one of these outcomes when replying: True for active, False for inactive

CCOP(=S)(OCC)SCSP(=S)(OCC)OCC = False
CCN(CCCl)Cc1ccccc1Br = False
CCOP(=S)(OCC)SCCSCC = False
CC[C@@H]1[C@@H](O)N2C3C[C@H]1C1C(O)[C@]4(C[C@@H]12)c1ccccc1N(C)[C@@H]34 (some centres not stated) = False
CCOP(=S)(OCC)SCSCC = False

Data request: Field: outcome | Entry: CC(=O)C1=C(O)C2C3c4c[nH]c5cccc(c45)CC3C(C)(C)N2C1=O (configuration not stated)
Data returned: False

Data request: Field: outcome | Entry: CC(C)(C)c1nc(N)sc1Br
Data returned: False

Data request: Field: outcome | Entry: O=C(O)c1cc(C(F)(F)F)ccc1F
Data returned: False

Data request: Field: outcome | Entry: COc1ccc(CN(Cc2ccc(OC)cc2)C(=O)c2cccs2)cc1
Data returned: False

Data request: Field: outcome | Entry: Cc1ccc(CSC(=N)N)cc1
Data returned: True

Data request: Field: outcome | Entry: Cc1ccc(CS/C(N)=N\N)cc1
Data returned: False

Data request: Field: outcome | Entry: CC[C@H]1CN2CCc3cc(OC)c(OC)cc3[C@@H]2C[C@@H]1C[C@H]1NCCc2cc(OC)c(OC)cc21
Data returned: False

====

Listing of recorded normalized growth by entry.
test.method.notes: chemical genetic growth profiling, strain panel (AID 1159580)
conditions.used: S. cerevisiae deletion strains, growth OD, locus YDR363W, strain ESC2, hits give low values
Hit rate of the full screen: of about 5,500 compounds, about 2,000 (36%) were called active. About 18% were inconclusive and are not listed. This is one part of the list.
Give the figure by itself; no unit, no explanation.

Completed entries (count: 3):
CC1=C(/C=C/C(C)=C/C=C/C(C)=C/C(=O)Nc2ccc(O)cc2)C(C)(C)CCC1 = 0.968
CCN1C(=O)C=CC1=O = 0.992
CC(COc1ccccc1)N(CCCl)Cc1ccccc1 (stereo not drawn) = 0.905

Data request: Requested field: normalized growth. Item: NC1CCN(c2cccc(Cl)n2)CC1
Data returned: 1.01

Data request: Requested field: normalized growth. Item: CCCn1c(=O)c2[nH]c(-c3ccc(S(=O)(=O)O)cc3)nc2n(CCC)c1=O
Data returned: 0.958

Data request: Requested field: normalized growth. Item: C[C@H](Cc1ccc2c(c1)OC(C(=O)O)(C(=O)O)O2)NC[C@H](O)c1cccc(Cl)c1
Data returned: 0.998

Data request: Requested field: normalized growth. Item: COC(=O)C(C)(N)Cc1ccc(O)cc1 (stereo not drawn)
Data returned: 0.966

Data request: Requested field: normalized growth. Item: CNC(CC(=O)O)C(=O)O (stereo not drawn)
Data returned: 1

====

test.method.notes: chemical genetic growth profiling, strain panel (AID 1159580)
conditions.used: S. cerevisiae deletion strains, growth OD, locus YGR078C, strain PAC10, hits give low values
About 2,000 (36%) of roughly 5,500 compounds were called active. Inconclusive results (about 18%) are left out. The list shows a part of the results.
measure.name: normalized growth
Give the figure by itself; no unit, no explanation.

Completed entries (count: 2):
CC[C@@]1(C2O[C@@H](C3O[C@@](O)(CC)[C@H](C)C[C@@H]3C)C[C@@H]2C)CC[C@H]([C@]2(C)CCC3(C[C@H](O)[C@@H](C)[C@@H]([C@H](C)[C@@H](OC)[C@H](C)C(=O)O)O3)O2)O1 (stereo partly specified) = 0.994
O=C(O)CCC(=O)c1ccc(-c2ccccc2)cc1 = 0.96

Data request: Requested field: normalized growth. Item: CCOC(=O)C1=CC2(CC)CCCN3CCc4c(n1c1ccccc41)C32 (stereo unspecified)
Data returned: 0.999

Data request: Requested field: normalized growth. Item: CCC(=O)c1ccc(-c2ccccc2)cc1
Data returned: 0.935

Data request: Requested field: normalized growth. Item: O=C(CCCCCCCCC(=O)c1ccccc1)c1ccccc1
Data returned: 1.02

Data request: Requested field: normalized growth. Item: O=C(O)CCCCC1SCC2NC(=O)NC21 (stereo unspecified)
Data returned: 1.05

Data request: Requested field: normalized growth. Item: CS(=O)(=O)OCCCCOS(C)(=O)=O
Data returned: 0.935

Data request: Requested field: normalized growth. Item: COS(C)(=O)=O
Data returned: 0.986

Data request: Requested field: normalized growth. Item: Nc1ccc(S(=O)(=O)Nc2nccs2)cc1
Data returned: 1

Data request: Requested field: normalized growth. Item: CCNS(=O)(=O)c1cc(Cl)sc1Cl
Data returned: 1

Data request: Requested field: normalized growth. Item: OC[C@H]1O[C@@H](n2cnc3cncnc32)[C@H](O)[C@@H]1O
Data returned: 1.03

====

test.method.notes: chemical genetic growth profiling, strain panel (AID 1159580);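 also: tested at 20 µM; growth read once vehicle control cultures reached saturation at 30 °C; 1 = growth at the plate median or of vehicle wells; lower values mean less growth of the strain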
conditions.used: S. cerevisiae deletion strains, growth OD, locus YPL055C, strain LGE1, hits give low values
The whole screen tested about 5,500 compounds, of which about 2,000 (36%) were called active. Inconclusive results (about 18%) are left out. The list shows a part of the results.
Please note: normalized growth exactly at 1 is no (0). Only values below 1 get yes (1).

CCOC(=O)c1c(C)csc1N = no (0)
N#Cc1c(-c2ccccc2)no[n+]1[O-] = yes (1)
C[C@@H]1C[C@@H]([C@H](O)CC2CC(=O)NC(=O)C2)C(=O)[C@@H](C)C1 = yes (1)
O=C(O)CC(CC(=O)O)c1ccc(C(F)(F)F)cc1 = yes (1)
CC1(C)CC2C1CCC1(C)OC1CCC2(C)O (stereo unspecified) = no (0)

Data request: For CCCSP(=O)(OCC)SCCC , is the recorded normalized growth below the cut-off of 1?
Data returned: no (0)

Data request: For CC1=C(/C=C/C(C)=C/C=C/C(C)=C\C(=O)O)C(C)(C)CCC1 , is the recorded normalized growth below the cut-off of 1?
Data returned: yes (1)

====

test.method.notes: chemical genetic growth profiling, strain panel (AID 1159580);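 also: tested at 20 µM; growth read once vehicle control cultures reached saturation at 30 °C; 1 = growth at the plate median or of vehicle wells; lower values mean less growth of the strain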
conditions.used: S. cerevisiae deletion strains, growth OD, locus YNL307C, strain MCK1 (second series)
Hit rate of the full screen: of about 5,500 compounds, about 2,000 (36%) were called active. About 18% were inconclusive and are not listed. No stated cut-off is given here; in the data, active means normalized growth mostly below about 0.91 (no sharp cut-off); inconclusive means no clear call, values can overlap the other calls; inactive means mostly above about 0.92. The list shows a part of the results.
Use one of these outcomes when replying: active, inactive

Reference set, count: 3
CN(C)/C=C/C(=O)c1ccc(C#Cc2ccccc2)cc1 = inactive
CC(C)(O)C#Cc1ccc(/C=N\Nc2c(Cl)cc(Cl)cc2Cl)cc1 = inactive
O=C(NCc1ccco1)c1csc(C2COc3ccccc3O2)n1 (stereo unspecified) = active

Data request: Field: outcome | Entry: CCC1CCC(C)N(C(=S)Nc2ccc(Br)cc2C)C1 (stereo unspecified)
Data returned: inactive

Data request: Field: outcome | Entry: CC(C)(O)C#Cc1ccc(/C=N\Nc2ccccc2)cc1
Data returned: active

Data request: Field: outcome | Entry: NC(=NC(=O)c1ccc(Cl)cc1)c1cccs1
Data returned: inactive

Data request: Field: outcome | Entry: O=C1/C(=C/c2c(F)cccc2Cl)Cc2ccccc21
Data returned: inactive

Data request: Field: outcome | Entry: O=C(Nc1cccc(C(F)(F)F)c1)Oc1ccc(F)cc1Cl
Data returned: inactive

Data request: Field: outcome | Entry: CCOC(=O)c1c(N=Cc2cc(Br)c(Br)cc2O)sc2c1CCCC2
Data returned: active

Data request: Field: outcome | Entry: CC(=O)C(Sc1nc2ccccc2s1)C(C)=O
Data returned: inactive

Data request: Field: outcome | Entry: Cc1cc(C(=O)O/N=C(/N)c2ccc(C(C)(C)C)cc2)no1
Data returned: inactive

====

Listing of recorded normalized growth by entry.
test.method.notes: chemical genetic growth profiling, strain panel (AID 1159580);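 also: tested at 20 µM; growth read once vehicle control cultures reached saturation at 30 °C; 1 = growth at the plate median or of vehicle wells; lower values mean less growth of the strain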
conditions.used: S. cerevisiae deletion strains, growth OD, locus YOR316C, strain cot1, hits give low values
The whole screen tested about 5,500 compounds, of which about 2,000 (36%) were called active. Roughly 18% stayed inconclusive and do not appear here. Some of the results follow.

Completed entries (count: 4):
O=C(/C=C/c1ccc(O)c(O)c1)O[C@@H]1C[C@](O)(C(=O)O)C[C@@H](O)[C@H]1O = 1.02 (inactive)
CC(=O)Oc1cc(C)c2c(c1C(OC(C)=O)OC(C)=O)Oc1c(c(C)c(OC(C)=O)c3c1C(OC(C)=O)OC3=O)OC2=O (stereo not given) = 0.978 (inactive)
CCCN(CCC)C(=O)C(CCC(=O)O)NC(=O)c1ccccc1 (stereo not given) = 0.977 (inactive)
Oc1ccc(/C=C/c2cc(O)cc(O)c2)cc1 = 0.982 (inactive)

Let's switch to this molecule now.
Data request: Requested field: normalized growth. Item: CC(=O)C1=C(O)C2C3c4c[nH]c5cccc(c45)CC3C(C)(C)N2C1=O (stereo not given)
Data returned: 1 (inactive)
